target_entity: T1, Soluble CDCP1 extracellular domain (CDCP1-ECD) (SEQ ID NO:30) fused to Streptavidin Binding Protein (SBP) (human, UniProt Q9H5V8 30-663)
T1 construct: also called SBP-CDCP1-ECD
T1 sequence: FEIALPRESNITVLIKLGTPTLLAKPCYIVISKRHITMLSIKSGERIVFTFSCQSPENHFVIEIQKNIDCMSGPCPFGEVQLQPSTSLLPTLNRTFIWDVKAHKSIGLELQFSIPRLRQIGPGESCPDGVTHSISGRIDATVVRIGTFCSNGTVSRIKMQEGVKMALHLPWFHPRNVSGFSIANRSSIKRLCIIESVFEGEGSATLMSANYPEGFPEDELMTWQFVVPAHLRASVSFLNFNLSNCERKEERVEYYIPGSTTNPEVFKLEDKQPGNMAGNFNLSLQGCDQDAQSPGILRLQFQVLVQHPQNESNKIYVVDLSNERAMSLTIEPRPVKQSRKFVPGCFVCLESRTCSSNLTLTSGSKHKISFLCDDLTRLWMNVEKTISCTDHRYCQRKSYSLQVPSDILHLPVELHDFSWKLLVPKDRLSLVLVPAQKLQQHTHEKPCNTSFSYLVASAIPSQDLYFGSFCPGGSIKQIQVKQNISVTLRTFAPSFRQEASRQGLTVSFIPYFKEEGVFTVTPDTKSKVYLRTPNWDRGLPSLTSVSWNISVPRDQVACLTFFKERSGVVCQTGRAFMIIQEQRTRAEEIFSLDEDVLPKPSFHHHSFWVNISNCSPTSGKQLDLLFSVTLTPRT
experiment_summary: ELISA on captured SBP-CDCP1-ECD, ratio relative to chimeric CUB4 (chHC4)
readout_label: binding result

For reference, reported binding result for hHC4-03 / hLC4-I (antibody, V domains shown) VH: EVQLLESGGGLVQPGGSLRLSCAASGFTFNSYGMSWVRQAPGKGLEWVSAISSGGSYTYYPDSVKGRFTISRDNSKNTLYLQMNSLRAEDTAVYYCAKHPDYDGVWFAYWGQGTLVTVSS VL: EIVMTQSPATLSLSPGERATLSCRASSSVFYLSWYQQKPGQAPRLWIYDTSKLASGIPARFSGSGSGTDFTLTISSLQPEDFAVYYCQQWNSNPPTFGGGTKVEIK stands at no binding

For reference, reported binding result for hHC4-b / hLC4-d (antibody, V domains shown) VH: EVQLVESGGGLVKPGGSLRLSCAASGFTFNSYSMNWVRQAPGKGLEWVSSISSGGSYIYYADSVKGRFTISRDNAKNSLYLQMNSLRAEDTAVYYCARHPDYDGVWFAYWGQGTLVTVSS VL: EIVMTQSPATLSVSPGERATLSCSVSSSVFYVHWYQQKPGQAPRLLIYDTSKLASGIPARFSGSGSGTEYTLTISSLQSEDFAVYYCQQWNSNPPTFGGGTKVEIK stands at no binding
